The values you see were collected from patent US8692017B2.

target: γ-secretase (Homo sapiens); construct: endogenous in cells; host or cells: SKNBE2 cells carrying APP 695 wild type; assay: Screening for γ-secretase-modulating activity (Aβ42 lowering) in SKNBE2 cells carrying the APP 695-wild type; format: cell-based; details: @ 1 uM; SKNBE2 cells carrying APP 695-wild type; read-out: Aβ % inhibition @ 1 uM
Reported Property: inhibition at 1 µM (%)

>  <Molecule>
CC(C)CC(C(=O)O)c1cc(/C=C\c2ccc(Cl)cc2)cc(-c2ccc(C(F)(F)F)cc2)c1 (stereo not drawn)

>  <inhibition at 1 µM [%]>
34

$$$$

a. CC(C)CC(C(=O)O)c1cc(C#Cc2ccc(Cl)cc2)cc(-c2ccc(C(F)(F)F)cc2)c1 (stereo not drawn)
b. CC(C)CC(C(=O)O)c1cc(/C=C\c2ccc(C(F)(F)F)cc2)cc(-c2ccc(C(F)(F)F)cc2)c1 (stereo not drawn)
API: POST /compare with a and b ; response names the item with higher inhibition at 1 µM. Pick one and reply with its label. b
(b: 46%, a: 18%)

----------
biological target: γ-secretase (Homo sapiens); construct: endogenous in cells; assay: Screening for γ-secretase-modulating activity (Aβ42 lowering) in SKNBE2 cells carrying the APP 695-wild type; conditions: SKNBE2 cells carrying APP 695-wild type; read-out: Aβ 42 lowering EC50
Reported Property: EC50 (nM)

1. CC(C)CC(C(=O)O)c1cc(CCc2ccc(C(F)(F)F)cc2)cc(-c2ccc(C(F)(F)F)cc2)c1 (stereo not shown) [Compound 25]
2. CC(C)CC(C(=O)O)c1cc(/C=C/c2ccc(C(F)(F)F)cc2)cc(-c2ccc(C(F)(F)F)cc2)c1 (stereo not shown) [Compound 15]
Just tell me: smaller EC50 value, 1 or 2 ? Answer by quoting the chosen item's label. 2
(2: 400 nM, 1: 670 nM)

P. CC(C)CC(C(=O)O)c1cc(CCc2ccc(-c3ccccc3)cc2)cc(-c2ccc(C(F)(F)F)cc2)c1 (stereo not shown) [Compound 24]
Q. CC(C)CC(C(=O)O)c1cc(/C=C/c2cc(F)cc(F)c2)cc(-c2ccc(C(F)(F)F)cc2)c1 (stereo not shown) [Compound 19]
Kindly identify which of P and Q has the larger recorded EC50 value. I would appreciate it if you answered with the label of your choice. Q

----------
target: γ-secretase (Homo sapiens, UniProt P49768); construct: endogenous in cells; assay: Screening for γ-secretase-modulating activity (Aβ42 lowering) in SKNBE2 cells carrying the APP 695-wild type; conditions: SKNBE2 cells carrying APP 695-wild type; read-out: Aβ 42 lowering EC50
Reported Property: EC50 (nM)

These solved cases illustrate the format of a correct answer.
>  <Compound>
CC(C)CC(C(=O)O)c1cc(/C=C/c2ccc(-c3ccccc3)cc2)cc(-c2ccc(C(F)(F)F)cc2)c1 (stereo not drawn) [Compound 14]

>  <Reported Property>
EC50

>  <Observed Result>
150

$$$$
>  <Compound>
CC(C)CC(C(=O)O)c1cc(Cc2cc(F)cc(F)c2)cc(-c2ccc(C(F)(F)F)cc2)c1 (stereo not drawn) [Compound 6]

>  <Reported Property>
EC50

>  <Observed Result>
740

$$$$
>  <Compound>
CC(C)CC(C(=O)O)c1cc(CCc2ccc(Cl)cc2)cc(-c2ccc(C(F)(F)F)cc2)c1 (stereo not drawn) [Compound 26]

>  <Reported Property>
EC50

>  <Observed Result>
740

$$$$

I. COc1ccc(/C=C/c2cc(-c3ccc(C(F)(F)F)cc3)cc(C(CC(C)C)C(=O)O)c2)cc1 (stereo not drawn) [Compound 20]
II. CC(C)CC(C(=O)O)c1cc(Cc2cnccc2Cl)cc(-c2ccc(C(F)(F)F)cc2)c1 (stereo not drawn) [Compound 4]
Parameter check: reported EC50 is higher for which label, I or II ? Refer to your chosen item by its label in the answer. II

I. CC(C)CC(C(=O)O)c1cc(Cc2ccc(F)cc2F)cc(-c2ccc(C(F)(F)F)cc2)c1 (stereo not drawn) [Compound 3]
II. CC(C)CC(C(=O)O)c1cc(C(=O)c2cc(Cl)cc(Cl)c2)cc(-c2ccc(C(F)(F)F)cc2)c1 (stereo not drawn) [Compound 1]
III. CC(C)CC(C(=O)O)c1cc(/C=C/c2ccc(F)cc2)cc(-c2ccc(C(F)(F)F)cc2)c1 (stereo not drawn) [Compound 18]
List these items ordered by EC50, big to small. Dear reader, please state the labels in the requested order. I, II, III
(I: 2170 nM, II: 710 nM, III: 390 nM)

P. CC(C)CC(C(=O)O)c1cc(/C=C/c2ccc(Cl)cc2)cc(-c2ccc(C(F)(F)F)cc2)c1 (stereo not drawn) [Compound 17]
Q. CC(C)CC(C(=O)O)c1cc(Cc2cccc(C(F)(F)F)c2)cc(-c2ccc(C(F)(F)F)cc2)c1 (stereo not drawn) [Compound 5]
// which entry has the larger EC50 value, P or Q ? State the label of the item chosen. Q
(Q: 1130 nM, P: 360 nM)

P. CC(C)CC(C(=O)O)c1cc(CCc2ccc(F)cc2)cc(-c2ccc(C(F)(F)F)cc2)c1 (stereo not drawn) [Compound 27]
Q. Cc1ccc(CCc2cc(-c3ccc(C(F)(F)F)cc3)cc(C(CC(C)C)C(=O)O)c2)cc1 (stereo not drawn) [Compound 28]
Given the listed records, identify the one among P and Q with higher EC50. Mark your answer with the label of the selected entry. P
(P: 580 nM, Q: 350 nM)

----------
target: γ-secretase (Homo sapiens, UniProt P49768); construct: endogenous in cells; host or cells: SKNBE2 cells carrying APP 695 wild type; experiment: Screening for γ-secretase-modulating activity (Aβ42 lowering) in SKNBE2 cells carrying the APP 695-wild type; format: cell-based; details: @ 1 uM; SKNBE2 cells carrying APP 695-wild type; read-out: Aβ % inhibition @ 1 uM
Reported Property: inhibition at 1 µM (%)

>  <Molecule>
CC(C)CC(C(=O)O)c1cc(C#Cc2ccc(C(F)(F)F)cc2)cc(-c2ccc(C(F)(F)F)cc2)c1 (stereo not shown)

>  <Experimental Target>
γ-secretase (Homo sapiens, UniProt P49768)

>  <inhibition at 1 µM / %>
10

$$$$
>  <Molecule>
CC(C)CC(C(=O)O)c1cc(C(=O)c2cc(F)cc(F)c2)cc(-c2ccc(C(F)(F)F)cc2)c1 (stereo not shown)

>  <Experimental Target>
γ-secretase (Homo sapiens, UniProt P49768)

>  <inhibition at 1 µM / %>
50

$$$$
>  <Molecule>
CC(C)CC(C(=O)O)c1cc(C(=O)c2ccc(C#N)cc2)cc(-c2ccc(C(F)(F)F)cc2)c1 (stereo not shown)

>  <Experimental Target>
γ-secretase (Homo sapiens, UniProt P49768)

>  <inhibition at 1 µM / %>
25

$$$$
>  <Molecule>
CC(C)CC(C(=O)O)c1cc(C#Cc2cc(F)cc(F)c2)cc(-c2ccc(C(F)(F)F)cc2)c1 (stereo not shown)

>  <Experimental Target>
γ-secretase (Homo sapiens, UniProt P49768)

>  <inhibition at 1 µM / %>
53

$$$$

I. CC(C)CC(C(=O)O)c1cc(C#Cc2cc(C(F)(F)F)cc(C(F)(F)F)c2)cc(-c2ccc(C(F)(F)F)cc2)c1 (stereo not shown)
II. CC(C)CC(C(=O)O)c1cc(/C=C/c2cc(C(F)(F)F)cc(C(F)(F)F)c2)cc(-c2ccc(C(F)(F)F)cc2)c1 (stereo not shown)
III. CC(C)CC(C(=O)O)c1cc(-c2ccc(C(F)(F)F)cc2)cc(C(O)c2cc(F)cc(F)c2)c1 (stereo not shown)
Task for the reader: rank each entry by its inhibition at 1 µM, from the minimum upward. Please respond by ranking the labels in the order requested. III, I, II

----------
molecular target: γ-secretase (Homo sapiens, UniProt P49768); construct: endogenous in cells; assay: Screening for γ-secretase-modulating activity (Aβ42 lowering) in SKNBE2 cells carrying the APP 695-wild type; details: SKNBE2 cells carrying APP 695-wild type; read-out: Aβ 42 lowering EC50
Reported Property: EC50 (nM)

>  <Compound>
CC(C)CC(C(=O)O)c1cc(Cc2cc(Cl)cc(Cl)c2)cc(-c2ccc(C(F)(F)F)cc2)c1 (stereo not drawn) [Compound 2]

>  <Experimental Target>
γ-secretase (Homo sapiens, UniProt P49768)

>  <Unit Text>
nM

>  <Observed Result>
570

$$$$

I. CC(C)CC(C(=O)O)c1cc(CCc2cc(F)cc(F)c2)cc(-c2ccc(C(F)(F)F)cc2)c1 (stereo not drawn) [Compound 29]
II. Cc1ccc(/C=C/c2cc(-c3ccc(C(F)(F)F)cc3)cc(C(CC(C)C)C(=O)O)c2)cc1 (stereo not drawn) [Compound 16]
Looking at recorded values for EC50, does I or II come in lower? Selection: enter the item's label. I
(I: 410 nM, II: 660 nM)
